Test: Selectivity index, ratio of IC50 for human MRC5 cells to IC50 for Trypanosoma brucei brucei GUTat 3.1
Type: toxicity, cell-based
Details: read-out: Ratio IC50
Quick reference for selectivity ratio among some molecules
Quantity: selectivity ratio

                               given_smiles           quantity  bound_type  recorded_value
0  COCO[C@H]1C=C2C(=O)OC[C@]23C=CC2=C(C(C)=C3C1)[C@H](c1ccoc1)OC2=O  selectivity ratio           =            1.73
1  CCC(=O)OC1=CC2=C(C)C3=C(C=C[C@]24COC(=O)[C@@H]4C1)C(=O)O[C@H]3c1ccoc1  selectivity ratio           =            4.06
2  CC(=O)O[C@@H]1CC2=C(C)C3=C(C=C[C@]24COC(=O)[C@@H]4C1)C(=O)O[C@H]3c1ccoc1  selectivity ratio           >            12.9
3  CCC(=O)O[C@@H]1CC2=C(C)C3=C(C=C[C@]24COC(=O)[C@@H]4C1)C(=O)O[C@H]3c1ccoc1  selectivity ratio           =            11.9
